Origin of the recorded values: paper PMC8119466

system: recombinant PRL-2 (Homo sapiens, UniProt Q12974)
Construct: 6xHis (N, cleaved yes); made in house; host or cells: E. coli One Shot BL21 Star
Sequence (Q12974 whole entry): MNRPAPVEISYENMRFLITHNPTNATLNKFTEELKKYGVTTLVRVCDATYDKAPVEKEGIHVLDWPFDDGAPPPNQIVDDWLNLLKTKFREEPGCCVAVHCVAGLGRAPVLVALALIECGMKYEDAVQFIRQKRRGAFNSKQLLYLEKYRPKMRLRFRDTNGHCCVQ
experimental_details: In vitro phosphatase assay (DiFMUP hydrolysis), PRL-2
Type: biochemical
conditions: FDA-approved drug screen; compared to DMSO
Counter-ions that a name gives are not always drawn.
measurement_kind: % Phosphatase Activity (compared to DMSO) PRL-2 (%)

molecule: Cc1ccc(C(=O)Nc2ccc(CN3CCN(C)CC3)c(C(F)(F)F)c2)cc1C#Cc1cnc2cccnn12 [Ponatinib (AP24534)]
result: 417
--
molecule: CC(C)/N=c1\cc2n(-c3ccc(Cl)cc3)c3ccccc3nc-2cc1Nc1ccc(Cl)cc1 [Clofazimine]
result: 96
--
molecule: CC1(C)S[C@@H]2[C@H](NC(=O)[C@H](NC(=O)N3CCNC3=O)c3ccccc3)C(=O)N2[C@H]1C(=O)O [Azlocillin sodium salt]
result: 112
--
molecule: NC(=O)c1cc(N2CC2)c([N+](=O)[O-])cc1[N+](=O)[O-] [CB1954]
result: 74
--
molecule: C#C[C@]1(O)CC[C@H]2[C@@H]3CCc4cc(O)ccc4[C@H]3CC[C@@]21C [Ethinyl Estradiol]
result: 99
--
molecule: COc1ccccc1Oc1c(NS(=O)(=O)c2ccc(C(C)(C)C)cc2)nc(-c2ncccn2)nc1OCCO [Bosentan]
result: 84
--
molecule: Clc1ccc(COC(Cn2ccnc2)c2ccc(Cl)cc2Cl)cc1 (stereo not shown) [Econazole nitrate]
result: 103

###

system: recombinant PRL-3 (Homo sapiens)
Construct: 6xHis (N, cleaved yes); made in house; host or cells: E. coli One Shot BL21 Star
experimental_details: In vitro phosphatase assay (DiFMUP hydrolysis), PRL-3; further: test concentration or dose not given here
Type: biochemical
conditions: FDA-approved drug screen; activity compared to DMSO
Where a name gives a salt, the structure may show the parent alone.
The following compounds are listed with their measured % Phosphatase Activity (compared to DMSO) PRL-3 values.
measurement_kind: % Phosphatase Activity (compared to DMSO) PRL-3 (%)

compound: CCS(=O)(=O)CCn1c([N+](=O)[O-])cnc1C
system: recombinant PRL-3 (Homo sapiens)
measurement_units: %
result: 84
--
compound: CC(=O)Nc1cccc(-n2c(=O)n(C3CC3)c(=O)c3c(Nc4ccc(I)cc4F)n(C)c(=O)c(C)c32)c1
system: recombinant PRL-3 (Homo sapiens)
measurement_units: %
result: 88
--
compound: CC[C@H]1OC(=O)C[C@@H](O)[C@H](C)[C@@H](O[C@@H]2O[C@H](C)[C@@H](O[C@H]3C[C@@](C)(O)[C@@H](O)[C@H](C)O3)[C@H](N(C)C)[C@H]2O)[C@@H](CC=O)C[C@@H](C)C(=O)/C=C/C(C)=C/[C@@H]1CO[C@@H]1O[C@H](C)[C@@H](O)[C@@H](OC)[C@H]1OC.O=C(O)C(O)C(O)C(=O)O [Tylosin tartrate]
system: recombinant PRL-3 (Homo sapiens)
measurement_units: %
result: 81
--
compound: Cc1cc(C(C)(C)C)cc(C)c1CC1=NCCN1 [Xylometazoline HCl]
system: recombinant PRL-3 (Homo sapiens)
measurement_units: %
result: 88
--
compound: C=C1CC[C@H](O)C/C1=C/C=C1\CCC[C@]2(C)[C@@H]([C@H](C)CCCC(C)C)CC[C@@H]12
system: recombinant PRL-3 (Homo sapiens)
measurement_units: %
result: 63
--
compound: C[C@@H]1CCN(C(=O)CC#N)C[C@@H]1N(C)c1ncnc2[nH]ccc12.O=C(O)CC(O)(CC(=O)O)C(=O)O [Tofacitinib (CP-690550) Citrate]
system: recombinant PRL-3 (Homo sapiens)
measurement_units: %
result: 104
--
compound: CS(=O)(=O)c1ccc(C(=O)Nc2ccc(Cl)c(-c3ccccn3)c2)c(Cl)c1
system: recombinant PRL-3 (Homo sapiens)
measurement_units: %
result: 79
--
compound: Cc1ccc(C(=O)c2ccc(CC(=O)O)n2C)cc1 [Tolmetin Sodium]
system: recombinant PRL-3 (Homo sapiens)
measurement_units: %
result: 111
--
compound: Cc1ccccc1C(=O)Nc1ccc(C(=O)N2CCCC(O)c3cc(Cl)ccc32)c(C)c1 (stereo not drawn)
system: recombinant PRL-3 (Homo sapiens)
measurement_units: %
result: 101

###

system: recombinant PRL-2 (Homo sapiens)
Construct: 6xHis (N, cleaved yes); made in house; host or cells: E. coli One Shot BL21 Star
experimental_details: In vitro phosphatase assay (DiFMUP hydrolysis), PRL-2;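 further: PRL-2 activity read as DiFMUP hydrolysis after 20 min at room temperature with drug, enzyme first pre-reduced at 4 °C for 20 min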
Type: biochemical
conditions: FDA-approved drug screen; compared to DMSO
Counter-ions that a name gives are not always drawn.
measurement_kind: % Phosphatase Activity (compared to DMSO) PRL-2 (%)

compound: C=CC[N+]1([C@H]2C[C@H]3[C@@H]4CC[C@H]5C[C@H](O)[C@@H](N6CCOCC6)C[C@]5(C)[C@H]4CC[C@]3(C)[C@H]2OC(C)=O)CCCC1 [Rocuronium Bromide]
result: 106

compound: C[N+]1(C)CCC(=C(c2ccccc2)c2ccccc2)CC1 [Diphemanil Methylsulfate]
result: 124

compound: COC(=O)C1=C(C)NC(C)=C(C(=O)OCCN(C)Cc2ccccc2)C1c1cccc([N+](=O)[O-])c1 (centres unmarked) [Nicardipine HCl]
result: 80

compound: Cc1cc(O)ccc1Cl
result: 101

compound: CC(C)c1nc(CN(C)C(=O)N[C@@H](CCN2CCOCC2)C(=O)N[C@H](CC[C@H](Cc2ccccc2)NC(=O)OCc2cncs2)Cc2ccccc2)cs1 [Cobicistat (GS-9350)]
result: 95

compound: CCOC(=O)O[C@]1(C(=O)OCCl)CC[C@H]2[C@@H]3CCC4=CC(=O)C=C[C@]4(C)[C@H]3[C@@H](O)C[C@@]21C [Loteprednol etabonate]
result: 89

compound: Cc1ncc([N+](=O)[O-])n1CCO
result: 92

compound: CCOC(=O)c1ccc(N)cc1
result: 98

compound: CCN1CCN(c2cc3c(cc2F)c(=O)c(C(=O)O)cn3C2CC2)CC1
result: 176

compound: CNC(=O)[C@@H](NC(=O)[C@H](CC(C)C)[C@H](O)C(=O)NO)C(C)(C)C
result: 77

compound: CCCCC1=NC2(CCCC2)C(=O)N1Cc1ccc(-c2ccccc2-c2nnn[nH]2)cc1
result: 87

compound: CC(C)[C@H](O)C(=O)N[C@@H](C)C(=O)N[C@@H]1C(=O)N(C)CCc2ccccc21
result: 120

compound: O=C(O)c1cc(/N=N/c2ccc(O)c(C(=O)O)c2)ccc1O [Olsalazine Sodium]
result: 53

compound: CCCCNc1cc(C(=O)O)cc(S(N)(=O)=O)c1Oc1ccccc1 [Bumetanide]
result: 128

compound: CNC(=O)c1ccc(Nc2ncc(C(F)(F)F)c(NCc3nccnc3N(C)S(C)(=O)=O)n2)cc1
result: 87

compound: Cl.O=C(OCC(O)CO)c1ccccc1Nc1ccnc2cc(Cl)ccc12 (centres unmarked) [Glafenine HCl]
result: 71

compound: CC(=O)O[C@H]1C[C@@]2(C)[C@@H](C[C@@H](O)[C@H]3[C@@]4(C)CC[C@@H](O)[C@@H](C)[C@@H]4CC[C@@]32C)/C1=C(\CCC=C(C)C)C(=O)O [Fusidate Sodium]
result: 79

compound: CCC1(C)CC(=O)NC(=O)C1 [Bemegride]
result: 97

compound: CCN(CC)CC#CCOC(=O)C(O)(c1ccccc1)C1CCCCC1 (centres unmarked) [Oxybutynin]
result: 99

compound: CCCCN1CCCC[C@H]1C(=O)Nc1c(C)cccc1C [Levobupivacaine HCl]
result: 108

###

The following compounds are listed with their measured % Phosphatase Activity (compared to DMSO) PRL-3 values.
system: recombinant PRL-3 (Homo sapiens, UniProt O75365)
Construct: 6xHis (N, cleaved yes); made in house; host or cells: E. coli One Shot BL21 Star
Sequence (O75365 whole entry): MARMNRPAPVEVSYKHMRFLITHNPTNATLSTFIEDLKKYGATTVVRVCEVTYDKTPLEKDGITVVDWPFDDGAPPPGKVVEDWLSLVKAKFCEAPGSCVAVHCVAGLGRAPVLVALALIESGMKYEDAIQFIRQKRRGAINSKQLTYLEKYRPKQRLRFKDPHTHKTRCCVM
experimental_details: In vitro phosphatase assay (DiFMUP hydrolysis), PRL-3; further: test concentration or dose not given here
Format: biochemical
conditions: FDA-approved drug screen; compared to DMSO
measurement_kind: % Phosphatase Activity (compared to DMSO) PRL-3 (%)

compound: O=c1[nH]c2ccccc2n1CCCN1CCC(n2c(=O)[nH]c3cc(Cl)ccc32)CC1
measurement_units: %
result: 79
//
compound: Cl.Cl.OCCOCCN1CCN(C(c2ccccc2)c2ccc(Cl)cc2)CC1 (stereo not shown) [Hydroxyzine 2HCl]
measurement_units: %
result: 85
//
compound: O=C(O)CCCCCCCC(=O)O
measurement_units: %
result: 95
//
compound: O=C(OCc1ccccc1)c1ccccc1 [Benzyl benzoate]
measurement_units: %
result: 77

###

system: recombinant PRL-3 (Homo sapiens)
Construct: 6xHis (N, cleaved yes); made in house; host or cells: E. coli One Shot BL21 Star
experimental_details: In vitro phosphatase assay (DiFMUP hydrolysis), PRL-3; further: test concentration or dose not given here
Format: biochemical
conditions: FDA-approved drug screen; compared to DMSO
Where a name gives a salt, the structure may show the parent alone.
measurement_kind: % Phosphatase Activity (compared to DMSO) PRL-3

molecule: CC(=O)[C@H]1CC[C@H]2[C@@H]3CC=C4C[C@@H](O)CC[C@]4(C)[C@H]3CC[C@]12C
result: 88%
--
molecule: Cn1cc(CNCC2CCN(c3ncc(C(=O)NO)cn3)CC2)c2ccccc21
result: 92%
--
molecule: Cc1ccc(N(CC2=NCCN2)c2cccc(O)c2)cc1 [Phentolamine Mesylate]
result: 90%
--
molecule: CNS(=O)(=O)CCc1ccc2[nH]cc(C3CCN(C)CC3)c2c1
result: 90%
